Observed pIC50, system cGMP-specific 3',5'-cyclic phosphodiesterase (Bos taurus, UniProt Q28156).
// scale note: pIC50 = -log10(conc_M); give the bare number

Sample answers from the record:
1) CN1C(=O)c2c(nc(Cc3ncc[nH]3)n2Cc2ccccc2)N2C1=N[C@@H]1CCC[C@@H]12 : 5.82
2) CN1C(=O)c2[nH]c(CN3CCCC3)nc2N2C1=N[C@@H]1CCC[C@@H]12 : 4.80
3) Cc1nc2c([nH]1)C(=O)N(C(C)C)C1=N[C@@H]3CCC[C@@H]3N12 : 6.62

# input Write pIC50 of "CN(C)Cc1nc2c(n1Cc1ccccc1)C(=O)N(C)C1=N[C@@H]3CCC[C@@H]3N12" ; system used: cGMP-specific 3',5'-cyclic phosphodiesterase (Bos taurus, UniProt Q28156)
# output 5.25

Origin of the recorded values: ChEMBL document CHEMBL1130088
